Hey, just so you know, these numbers are from patent US5270339A.

- System: experimental amnesia in mice induced by cycloheximide
- RUN DESCRIPTION: Anti-amnesic effect: passive avoidance task (step-through), cycloheximide-induced amnesia
- Format: in vivo, ddY male mice
- STATED CONDITIONS: 3 mg/kg oral, mean of group
Measured Step-through latency of individual entries
MEASURED METRIC: Step-through latency (s)

O=C1C(=Cc2cccc(Oc3ccccc3)c2)CCN1Cc1ccc(Cl)cc1 : 100
CCN1CCC(Cc2cccc(Oc3ccccc3)c2)C1=O (stereo not drawn) : 102
COc1ccc(NC(=O)N2CCC(=Cc3cccc(Oc4ccccc4)c3)C2=O)cc1 : 100

###

- System: experimental amnesia in mice induced by cycloheximide
- RUN DESCRIPTION: Anti-amnesic effect: passive avoidance task (step-through), cycloheximide-induced amnesia
- Format: in vivo, ddY male mice
- STATED CONDITIONS: 3 mg/kg oral, mean of group
Where a name gives a salt, the structure may show the parent alone.
MEASURED METRIC: Step-through latency (s)

CCOC(=O)CN1CCC(=Cc2cccc(Oc3ccccc3)c2)C1=O : 100
C1=Cc2cccc(OCC3CNCCO3)c2C1 (stereo not drawn) [Indeloxazine hydrochloride, reference compound] : 131
COc1ccc(C(=O)N2CCC(=Cc3cccc(Oc4ccccc4)c3)C2=O)cc1 : 179
